Tested on: 171881-019-R-J1-PDC complex spheroid growth, % test/control;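 note: spheroids exposed to compounds for 7 days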
ASSAY TEXT: Anticancer human tumor 171881-019-R-J1-PDC patient-derived invasive breast carcinoma cell line growth inhibition [Asc]; active = viability on the fitted dose curve at most 10% of control; inactive = the rest
RUN CONDITIONS: second compound 1 µM; first compound 0.316 µM
Outcomes: active, inactive

1) C#Cc1c(F)ccc2cc(O)cc(-c3ncc4c(N5CC6CCC(C5)N6)nc(OCC56CCCN5CC(F)C6)nc4c3F)c12 (stereo not drawn) + Cc1c(S(C)(=O)=O)c(-c2cc(F)cc(N3CCN(c4ccc(NS(=O)(=O)c5ccc(NC(CCN6CCC(C(=O)OCCCP(=O)(O)O)CC6)CSc6ccccc6)c(S(=O)(=O)C(F)(F)F)c5)cc4)CC3)c2)c(-c2ccc(Cl)cc2)n1C(C)C | inactive
2) COc1c(OCCCN2CCOCC2)ccc2c3n(c(=NC(=O)c4cnc(N)nc4)nc12)CCN3 + CNC(C)C(=O)NC1CN(S(=O)(=O)c2cccc(S(=O)(=O)N3CCC4CCC(C(=O)NC(c5ccccc5)c5ccccc5)N4C(=O)C(NC(=O)C(C)NC)C3)c2)CCC2CCC(C(=O)NC(c3ccccc3)c3ccccc3)N2C1=O | active
3) C=CC(=O)N1CCN(c2nc(=O)n(-c3c(C)ccnc3C(C)C)c3nc(-c4c(O)cccc4F)c(F)cc23)C(C)C1 (stereo not drawn) + Cc1c(S(C)(=O)=O)c(-c2cc(F)cc(N3CCN(c4ccc(NS(=O)(=O)c5ccc(NC(CCN6CCC(C(=O)OCCCP(=O)(O)O)CC6)CSc6ccccc6)c(S(=O)(=O)C(F)(F)F)c5)cc4)CC3)c2)c(-c2ccc(Cl)cc2)n1C(C)C | inactive

Hello, the source for this data is PubChem BioAssay AID1963428, in case you need it.
